System: CAKI-1
Assay: NCI tumour cell line growth inhibition, 48 h
The source made the active and inactive calls. No stated cut-off is given here; in the data, active = GI50 up to about 1.1 µM and inactive = higher.
Reported Property: GI50

• C[n+]1c2ccccc2n2c3ccccc3c(NCc3ccco3)c(C#N)c21 = 2.07 µM (inactive)
• O=C1CSc2nnc(CCCCCCCCc3nnc4n3NC(=O)CS4)n2N1 = > 100 µM (inactive)
• Cc1ccc(S(=O)(=O)NNS(C)(=O)=O)cc1 = > 100 µM (inactive)
• Cc1cn([C@@H]2O[C@H](CO[Si](C)(C)C(C)(C)C)[C@]3(O[C@H]3C(=O)NO)[C@H]2O[Si](C)(C)C(C)(C)C)c(=O)[nH]c1=O = 2.07 µM (inactive)
• CCN1CCCCC(=N\O)/C(=N/O)CCCC1 = > 100 µM (inactive)
• CCCCCCCCCCCCCCCCOP(=O)(O)OCC(N)C(=O)O (stereo not given) = 13 µM (inactive)
• NC(=O)N/N=C1/c2ccccc2-n2nccc21 = 52.5 µM (inactive)
• CN(C)/C=N/c1ccc2[nH]c3ccccc3c2c1 = 35.2 µM (inactive)
• C=C1CCC(CC[C@@H]2CC[C@]3(OC2)O[C@@]2(O)CC[C@]3(C)OC2(C)C)C(C)(C)[C@H]1C/C=C1/C(=O)OC[C@@H]1O (stereo not given in full) = 5 µM (inactive)
• CCOc1cc2oc(C)cc(=O)c2c(OC)c1/C=N/c1ccc(Cn2c(C)nc3ccccc32)cc1 = > 100 µM (inactive)

====

Tested on: HOP-62
Assay: NCI tumour cell line growth inhibition, 48 h
The source made the active and inactive calls. Rule as the data show it: active = GI50 up to about 1.1 µM and inactive = higher.
Outcomes: y for active, n for inactive

• CC(=O)NC(CS)C(=O)O (stereo not drawn) = n
• CC(C)=CCNc1ncnc2c1ncn2CCC(=O)O = n
• Cc1ccc(NCCN(C)C)c2c(=O)c3cc(O)ccc3sc12 = y
• O=c1cnc2cc3ccccc3cc2[nH]1 = n
• Cn1c2c(c3ccccc31)CC(=O)N1CCCCC1C21OCCO1 (stereo not drawn) = n
• O/N=C/[C@H]1COC2(CCCCC2)O1 = n
• O=C(NC(=O)c1c(F)cccc1F)Nc1cccc(Oc2ncc(Cl)cn2)c1 = n
• CC(=O)c1c(C)[n+]([O-])c2cc(Cl)c(Cl)cc2[n+]1[O-] = n
• C[C@]12CCC(=O)C=C1CC[C@@H]1C2CC[C@@]2(C)C1CC[C@@H]2OC(=O)C12OC1CCC2=O (stereo partly drawn) = n
• C[n+]1c2ccccc2n2c3ccccc3c(NCc3ccco3)c(C#N)c21 = n
• COc1ccc(C(=O)C(c2ccc(OC)cc2)C2OC(=O)C(Cl)=C2Cl)cc1 (stereo not drawn) = n
• COC(=O)CC(C(C(C)=O)C(=O)OCc1ccccc1)N1C(=O)OCC1c1ccccc1 (stereo not drawn) = n
• O=C(c1ccc(Cl)cc1)c1cnc(Nc2ccccc2Cl)s1 = n
• COC(=O)C12OCC34C(CC5C(C)C6=CC(=O)OC6=CC5(C)C3C(O)C1O)OC(=O)C(O)C24 (stereo not drawn) = y
• OC(c1ccsc1)c1cc2ccccc2s1 (stereo not drawn) = n
• CCCCCCC1=NOC(C(c2cc[nH]c2)N(C)[C@H](C(=O)OC)C(C)C)C1 (stereo partly drawn) = n
• O=C1/C(=C/c2ccc([N+](=O)[O-])cc2)Oc2cc(O)ccc21 = n
• Nc1ccc(-c2nc3ccccc3s2)cc1Cl = n
• CC1=NN(c2cccc(Cl)c2)C2(C1=Cc1ccccc1)C(Cl)C(=O)N2c1nc2ccccc2s1 (stereo not drawn) = n
• Cn1ncc(=S)[nH]c1=S = n
• O=C1O[C@]2(c3ccccc3)C(c3ccccc3)=C[C@]2(C(=O)c2ccccc2)C1=O = n
• O/N=C/c1cc2c(cc1Br)OCO2 = n
• CC(C)C(=O)N1C(=O)O[C@@H](c2ccccc2)[C@H]1C = n
